# Test system: Phosphorylation of ERK1/2 in A549 cells
# method: Phospho-ERK1/2 MSD Assay (A549)
# Format: cell-based
# condition_details: Homo sapiens, A549, 4 h, read-out: pERK IC50 (4 h, A549), 4 h compound treatment
As shown below, each of these molecules has a reported IC50 value.
result_type: IC50

C=CC(=O)N1CC(NC(=O)Cn2c(C)c(C(=O)N3CCN(c4ccc(C#N)cn4)C[C@@H]3C)c3cc(Br)ccc32)C1 [Example 81] : > 100 µM
C=CC(=O)N1CC(N(C)C(=O)Cn2c(CC)c(C(=O)N3CCc4c(ccnc4OC)C3)c3cc(Cl)cc(C)c32)C1 [Example 4-1] : > 100 µM
C=CC(=O)N1CC(NC(=O)Cn2c(C)c(C(=O)N3CCc4ncccc4C3)c3cc(Br)ccc32)C1 [Example 116] : > 100 µM
C=CC(=O)N1CC(NC(=O)Cn2cc(C(=O)N3CCc4cc(F)ccc4C3)c3cc(Br)ccc32)C1 [Example 114] : > 100 µM
C=CC(=O)N1CC(NC(=O)Cn2c(C3CC3)c(C(=O)N3CCN(c4ccc(C#N)cn4)CC3)c3cc(Cl)cc(C)c32)C1 [Example 14] : > 100 µM
C=CC(=O)N1CC(N(C)C(=O)Cn2c(C)c(C(=O)N3CCc4c(cccc4OC)C3)c3cc(Cl)ccc32)C1 [Example 33] : > 100 µM
C=CC(=O)N1CC(NC(=O)Cn2c(C)c(C(=O)N3CCN(c4ccc(Br)cn4)CC3)c3cc(Br)ccc32)C1 [Example 34] : > 100 µM
C=CC(=O)N1CC(NC(=O)Cn2c(C)c(C(=O)N3CCc4c(ccnc4OC)C3)c3cc(Br)ccc32)C1 [Example 12] : > 100 µM
C=CC(=O)N1CC(NC(=O)Cn2cc(C(=O)N3CCN(c4ncccc4C)CC3)c3cc(Br)ccc32)C1 [Example 61] : > 33.3 µM
C=CC(=O)N1CC(NC(=O)Cn2c(C)c(C(=O)N3CCc4ccccc4C3CC)c3cc(Br)cc(C)c32)C1 (centres unmarked) [Example 59] : 45.9 µM
C=CC(=O)N1CC(NC(=O)Cn2cc(C(=O)N3CCN(c4ccc([N+](=O)[O-])cc4)CC3)c3cc(Br)ccc32)C1 [Example 166] : > 100 µM
C=CC(=O)N1CC(NC(=O)Cn2c(C)c(C(=O)N3[C@H](C)Cc4c(OC)cccc4[C@H]3C)c3cc(Br)cc(C)c32)C1 (stereo in doubt) [Example 2-3] : 51.7 µM
C=CC(=O)N1CC(NC(=O)Cn2c(C)c(C(=O)N3CCN(c4ccc(C#N)cn4)C[C@H]3C)c3cc(Br)ccc32)C1 [Example 16] : > 100 µM
C=CC(=O)N1CC(NC(=O)Cn2cc(C(=O)NCCC(=O)Nc3cc(C)ccc3C)c3cc(Br)ccc32)C1 [Example 169] : > 100 µM

----------
As shown below, each of these molecules has a reported log10(IC50) value.
# system: GDP-bound KRAS protein (aa 1-169), containing both G12C and C118A amino acid substitutions (Homo sapiens (Human), UniProt P01116, C118A/G12C)
# Sequence (P01116 other isoform, or with tags, fused parts or gaps G12C/C118A): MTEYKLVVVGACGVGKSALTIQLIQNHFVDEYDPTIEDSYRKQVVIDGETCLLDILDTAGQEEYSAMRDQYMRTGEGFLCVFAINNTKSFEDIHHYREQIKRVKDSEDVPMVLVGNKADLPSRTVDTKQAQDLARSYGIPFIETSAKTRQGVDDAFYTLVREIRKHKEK
# method: Coupled Nucleotide Exchange Assay
# Format: biochemical
# condition_details: first Coupled Exchange column; compound pre-incubation probably 5 min (rest of head not shown; b435 lists 5 min, 2 hours or 20 hours); read-out: Coupled Exchange IC50
result_type: log10(IC50) (log10 of the value in µM)

C=CC(=O)N1CC(NC(=O)Cn2cc(CC(=O)N3CCC4(CCOCC4)C3)c3cc(Br)ccc32)C1 : 1.49
C=CC(=O)N1CC(CO)(NC(=O)Cn2ccc3cc(Br)ccc32)C1 : 2.26
C=CC(=O)N1CC(NC(=O)Cn2c(C)c(-c3cnccc3C3=CCCCCC3)c3cc(Cl)cc(C)c32)C1 : -0.05
C=CC(=O)N1CC(NC(=O)Cn2c(C)c(-c3cccnc3N3CCC(C)CC3)c3cc(Cl)cc(C)c32)C1 : -0.06
C=CC(=O)N1CC(NC(=O)Cn2cc(CC(=O)N3CCOC4CC(N(C)C)CCC43)c3cc(Br)ccc32)C1 (stereo not shown) : 1.93
C=CC(=O)N1CC(NC(=O)Cn2cc(CC(=O)N3CCc4cn[nH]c4C3)c3cc(Br)ccc32)C1 : 1.64
C=CC(=O)N1CC(NC(=O)Cn2c(C)c(-c3cncnc3C(C)C)c3cc(Cl)cc(C)c32)C1 : 0.46

----------
# system: GDP-bound KRAS protein (aa 1-169), containing both G12C and C118A amino acid substitutions (Homo sapiens (Human), UniProt P01116, C118A/G12C)
# method: Coupled Nucleotide Exchange Assay
# Assay type: biochemical
# condition_details: read-out: Coupled Exchange IC50 (20 h); 20 h compound pre-incubation
The threshold is 700 nM. Values of IC50 beneath it are tagged TRUE; values meeting or exceeding it are tagged FALSE.

C=CC(=O)N1CC(NC(=O)Cn2cc(-c3c(C)ccc4[nH]ncc34)c3cc(Cl)ccc32)C1 [Example 142] : FALSE
C=CC(=O)N1CC(NC(=O)Cn2cc(-c3c(O)cccc3F)c3cc(Cl)ccc32)C1 [Example 144] : FALSE
C=CC(=O)N1CC(NC(=O)Cn2c3c(c4cc(Br)ccc42)CCN(C(C)=O)C3)C1 [Example 252] : FALSE
C=CC(=O)N1CC(NC(=O)Cn2cc([N+](=O)[O-])c3cc(Cl)ccc32)C1 [Example 240] : FALSE
C=CC(=O)N1CC(NC(=O)Cn2c(C(=O)OC)cc3cc(Br)ccc32)C1 [Example 181] : FALSE
C=CC(=O)N1CC(NC(=O)Cn2c(C)c(C(=O)N3CCc4c(O)cccc4C3)c3cc(Br)ccc32)C1 [Example 58] : TRUE
C=CC(=O)N1CC(NC(=O)Cn2cc(I)c3cc(Br)ccc32)C1 [Example 85] : TRUE
C=CC(=O)N1CC(NC(=O)Cn2c3c(c4cc(Br)ccc42)C=NCC3)C1 [Example 238] : FALSE
C=CC(=O)N1CC(NC(=O)Cn2c(C)c(-c3ccccc3CC)c3cc(Cl)ccc32)C1 [Example 54] : TRUE
C=CC(=O)N1CC(NC(=O)Cn2cc(C3CC3)c3ccc(-c4ccccc4Cl)cc32)C1 [Example 146] : FALSE
C=CC(=O)N1CC(NC(=O)Cn2ccc3c(Cl)cccc32)C1 [Example 199] : FALSE
C=CC(=O)N1CC(NC(=O)Cn2cc(C(=O)N3CCc4c(C)cccc4C3)c3cc(Br)ccc32)C1 [Example 86] : TRUE
C=CC(=O)N1CC(NC(=O)Cn2ccc3cc(C(F)(F)F)ccc32)C1 [Example 235] : FALSE
C=CC(=O)N1CC(NC(=O)Cn2cc(C(=O)N3CCc4c(Br)cc(C)cc4C3)c3cc(Br)cc(C)c32)C1 [Example 80] : TRUE
C=CC(=O)N1CC(NC(=O)Cn2cc(-c3cccc(C(C)C)c3)c3cc(Br)cc(C)c32)C1 [Example 268] : FALSE
C=CC(=O)N1CC(NC(=O)C(C)(C)n2c(C)c(C(=O)N3CCc4c(cccc4OC)C3)c3cc(Cl)ccc32)C1 [Example 131] : FALSE
C=CC(=O)N1CC(NC(=O)Cn2cc(C(=O)N3CCc4c(Br)cc(C)cc4C3)c3cc(Cl)cc(Cl)c32)C1 [Example 92] : TRUE
C=CC(=O)N1CC(NC(=O)Cn2c3c(c4cc(Br)ccc42)CC(c2ccccc2)CC3)C1 (stereo not shown) [Example 133] : FALSE
C=CC(=O)N1CC(NC(=O)Cn2cc(C(=O)N3CCc4c(C)cccc4C3)c3cc(Cl)cc(Cl)c32)C1 [Example 74] : TRUE
C=CC(=O)N1CC(NC(=O)Cn2cc(-c3c(C)ccc4cn[nH]c34)c3cc(Br)ccc32)C1 [Example 130] : FALSE
C=CC(=O)N1CC(N(C)C(=O)Cn2c(C)c(C(=O)N3CCN(c4ccc(C#N)cn4)CC3)c3cc(Br)ccc32)C1 [Example 27] : TRUE
C=CC(=O)N1CC(NC(=O)Cn2cc(I)c3cc(Br)cc(CC)c32)C1 [Example 87] : FALSE
C=CC(=O)N1CC(NC(=O)Cn2cc(C(=O)N3CCc4c(C)cccc4C3)c3cc(Br)cc(C)c32)C1 [Example 94] : TRUE
C=CC(=O)N1CC(NC(=O)Cn2cc(C(=O)NCCc3ccc(Cl)cc3Cl)c3cc(Cl)cc(Cl)c32)C1 [Example 178] : TRUE
C=CC(=O)N1CC(N2CCC(n3cc(I)c4cc(Cl)ccc43)C2=O)C1 (stereo not shown) [Example 90] : TRUE
C=CC(=O)N1CC(NC(=O)Cn2cc(-c3c(F)ccc4cn[nH]c34)c3cc(-c4c(F)ccc5cn[nH]c45)ccc32)C1 [Example 208] : FALSE
C=CC(=O)N1CC(NC(=O)Cn2cc(C(=O)NCCc3nc(C)c(C)s3)c3cc(Br)ccc32)C1 [Example 176] : TRUE
C=CC(=O)N1CC(NC(=O)Cn2cc(-c3ccccc3C(C)C)c3cc(Br)cc(C)c32)C1 [Example 119] : TRUE
C=CC(=O)N1CC(NC(=O)Cn2cc(C(=O)NCC(CC)Oc3cccc(Cl)c3)c3cc(Br)ccc32)C1 (stereo not shown) [Example 152] : TRUE
